I'd be grateful if you could share measured Percent Effect for these entries.
- Target Desc: Aspartate--tRNA(Asp/Asn) ligase (Mycobacterium tuberculosis (strain ATCC 25618 / H37Rv)) (UniProt P9WFW3)
- Sequence (whole entry): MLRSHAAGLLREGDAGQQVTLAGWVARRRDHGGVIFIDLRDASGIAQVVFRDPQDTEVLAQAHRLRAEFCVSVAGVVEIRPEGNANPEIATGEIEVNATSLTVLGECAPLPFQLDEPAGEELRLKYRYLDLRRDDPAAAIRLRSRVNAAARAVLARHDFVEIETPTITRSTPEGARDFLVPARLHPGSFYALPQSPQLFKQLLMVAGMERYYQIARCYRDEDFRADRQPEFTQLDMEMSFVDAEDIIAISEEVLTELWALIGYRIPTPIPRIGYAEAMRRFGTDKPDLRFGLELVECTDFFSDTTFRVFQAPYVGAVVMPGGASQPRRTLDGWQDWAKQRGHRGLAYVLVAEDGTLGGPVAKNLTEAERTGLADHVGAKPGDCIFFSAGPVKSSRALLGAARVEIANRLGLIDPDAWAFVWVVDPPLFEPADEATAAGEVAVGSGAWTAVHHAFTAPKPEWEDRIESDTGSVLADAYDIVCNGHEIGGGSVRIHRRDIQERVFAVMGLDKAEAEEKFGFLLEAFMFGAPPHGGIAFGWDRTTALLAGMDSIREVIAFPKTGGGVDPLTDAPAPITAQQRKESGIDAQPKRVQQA
- Assay Info: Assay for Asp RNA synthetase-1 from Mycobacterium tuberculosis
- Type: functional
- Design: scale not given: in the data most compounds retested in dose-response had high values
- Reported Conditions: 30 µM
The answer is to be given in %; state only the numeric part.

For CCN(CC1CCOC1)C(=O)c1cccnc1N1CCOCC1 (stereo unspecified) the compound record lists Percent Effect as -1.66

For Cc1ccc(CN2Cc3c(C(=O)N(C)C)nn(C)c3C2)s1 the compound record lists Percent Effect as 1.3

For Cc1noc(C)c1-c1cnc(CC2CCN(C(=O)c3cc[nH]n3)C2)cn1 (stereo unspecified) the compound record lists Percent Effect as 4.09

For CCn1c(CN(C)C)nnc1C1CCN(c2ccnc(C)c2)CC1 the compound record lists Percent Effect as 4.18

For O=C(c1ccccn1)N1CCN(c2ccc(-c3cccnc3)nn2)CC1 the compound record lists Percent Effect as -6.42

For CC(C)S(=O)(=O)N1CCC(c2cc3n(n2)[C@@H](C(F)(F)F)C[C@@H](C)N3)C1 (stereo partly specified) the compound record lists Percent Effect as -2.54

For CN(C)c1cc(C(=O)N2CCN(c3cnccn3)CC2)ccn1 the compound record lists Percent Effect as -1.5

For Cc1ccccc1CC1(CO)CCCN(c2ncccc2C#N)C1 (stereo unspecified) the compound record lists Percent Effect as 3.07

For Cc1cnn(CC2CCCN2C(=O)c2cc3ccccc3[nH]c2=O)c1 (stereo unspecified) the compound record lists Percent Effect as -1.15

For Cn1c(C(F)(F)F)nn(CCNC(=O)CSCc2ccccc2)c1=O the compound record lists Percent Effect as -5.63

For CCN1C[C@@H]2[C@@H](OC)CCN(S(=O)(=O)c3ccccc3)[C@@H]2C1 the compound record lists Percent Effect as -4.66

====

- Target Desc: Aspartate--tRNA(Asp/Asn) ligase (Mycobacterium tuberculosis (strain ATCC 25618 / H37Rv)) (UniProt P9WFW3)
- Sequence (whole entry): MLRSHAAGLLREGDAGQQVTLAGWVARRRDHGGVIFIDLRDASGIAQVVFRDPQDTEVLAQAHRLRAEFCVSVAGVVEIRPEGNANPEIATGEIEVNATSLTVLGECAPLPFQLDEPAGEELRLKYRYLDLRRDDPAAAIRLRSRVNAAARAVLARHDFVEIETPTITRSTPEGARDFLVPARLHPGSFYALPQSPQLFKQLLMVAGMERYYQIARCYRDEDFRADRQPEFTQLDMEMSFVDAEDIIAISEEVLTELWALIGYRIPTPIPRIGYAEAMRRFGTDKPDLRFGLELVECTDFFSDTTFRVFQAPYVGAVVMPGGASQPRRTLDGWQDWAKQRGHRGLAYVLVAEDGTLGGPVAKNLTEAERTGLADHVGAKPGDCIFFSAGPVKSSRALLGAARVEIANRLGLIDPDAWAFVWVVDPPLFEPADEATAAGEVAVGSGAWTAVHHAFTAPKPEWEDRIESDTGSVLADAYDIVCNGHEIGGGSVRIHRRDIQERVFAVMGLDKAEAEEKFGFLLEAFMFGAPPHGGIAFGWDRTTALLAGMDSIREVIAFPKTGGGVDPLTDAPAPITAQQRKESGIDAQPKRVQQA
- Assay Info: Assay for Asp RNA synthetase-1 from Mycobacterium tuberculosis
- Type: functional
- Design: scale not given: in the data most compounds retested in dose-response had high values
- Reported Conditions: 30 µM
I'd be grateful if you could share measured Percent Effect for these entries.
The answer is to be given in %; state only the numeric part.

For Oc1nc(N2CCOCC2)nc2c1CCN(Cc1cccnc1)CC2 the compound record lists Percent Effect as 0.849

For CC(=O)N(C)c1nc(CN2CCOC(Cn3cccn3)C2)cs1 (centres undefined) the compound record lists Percent Effect as 3.18

For COC(=O)c1cccc(NS(=O)(=O)c2cnc(NC(C)=O)s2)c1 the compound record lists Percent Effect as -3.37

For Cc1cnn(CCNCc2ccc(OCc3csc(C)n3)cc2)c1 the compound record lists Percent Effect as -0.126

For CCOCC(O)CN1CCN(C(=O)c2ccccc2Cl)CC1 (centres undefined) the compound record lists Percent Effect as -4.21

For COCCc1noc(CNC2CCCN(c3cccnn3)C2)n1 (centres undefined) the compound record lists Percent Effect as -0.981

For Cc1ccc2c(c1)c(CNC(=O)C1CC(=O)N(C3CCCC3)C1)nn2C (centres undefined) the compound record lists Percent Effect as 4.05

For O=C(NCc1cccnc1)C1CC(=O)N(CC2CC2)C1 (centres undefined) the compound record lists Percent Effect as -3.29

For Cc1nc(CN2CCC3(CCCN(Cc4cnn(C)c4)C3)C2=O)cs1 (centres undefined) the compound record lists Percent Effect as -3.23

For Cc1nc(-c2ccccc2)n(CC(=O)N(C(C)C)C(C)C)n1 the compound record lists Percent Effect as 4.15

For O=C1OCCC1N1CCN(C(=O)Cc2c[nH]c3ccccc23)CC1 (centres undefined) the compound record lists Percent Effect as 6.13

For Cc1cnc(C(=O)N2CCCCC2c2[nH]ncc2S(C)(=O)=O)cn1 (centres undefined) the compound record lists Percent Effect as 2.63

For c1cn(Cc2nnc(C3CCN(c4nccs4)CC3)n2C2CC2)cn1 the compound record lists Percent Effect as -3.69

For O=C(NCCc1cccs1)[C@H]1CO[C@H]2CCNC[C@H]2C1 the compound record lists Percent Effect as 2.09

For Cc1cccc(N2CCN(C(=O)Nc3cnn(CC(N)=O)c3)CC2)c1 the compound record lists Percent Effect as -2.01

For Cc1ccc(N2CCCC(NCc3ccsc3)C2)nn1 (centres undefined) the compound record lists Percent Effect as 4.57

For CC(C)CN1CCN(C(=O)Nc2cc(C(F)(F)F)c[nH]c2=O)CC1 the compound record lists Percent Effect as -1.79

For O=c1[nH]c(CN(Cc2ccco2)C2CCCC2)nc2ccccc12 the compound record lists Percent Effect as -3.64

For CN(C)C(=O)C1CCCN1CCCNC(=O)c1ccccc1F (centres undefined) the compound record lists Percent Effect as 7.07

For OCCn1cc(CN2CCN(CCOc3ccccc3)CC2)cn1 the compound record lists Percent Effect as 0.728

For Cc1noc(CN2CCN(CC(C)O)CC2)n1 (centres undefined) the compound record lists Percent Effect as -2.18

For Cc1cc(CN2CCN(C(c3ccccc3)c3ccccc3)CC2)no1 the compound record lists Percent Effect as 0.857

For CCc1noc(CNc2ccc(C(=O)N3CCCC(C)C3)cc2C)n1 (centres undefined) the compound record lists Percent Effect as -1.27

For CN(C)C(=O)NC1COC2(CCN(Cc3nccn3C)CC2)C1 (centres undefined) the compound record lists Percent Effect as 2.7
